target: CaM (Bos taurus, UniProt P62157); construct: made in house; host or cells: E. coli BL21 (DE3); experiment: Pull-down assay with immobilized protein and LSM libraries; type: binding, bovine; conditions: H14 library; 1:2 stoichiometry assumed; read-out: Surface mapping KD (apparent)
pKd values, listed per item
When answering, recall that pKd equals minus log10 of the concentration in mol/L, and write that number alone.

Below: 6 molecules and their reported pKd.
Chemical smiles	pKd
CC[C@H](C)[C@@H](CC(=O)N[C@H]1CCCC[C@@H]1C(N)=O)NC(=O)[C@H]1CCCC[C@@H]1NC(=O)[C@H]1CCCC[C@@H]1NC(=O)C[C@H](CCCCN)NC(=O)[C@H]1CCCC[C@@H]1N	4.66
CC[C@H](C)[C@@H](CC(=O)N[C@H]1CCCC[C@@H]1C(N)=O)NC(=O)[C@H]1CCCC[C@@H]1NC(=O)[C@H]1CCCC[C@@H]1NC(=O)C[C@H](Cc1ccc(O)cc1)NC(=O)[C@H]1CCCC[C@@H]1N	5.70
NC(=O)[C@H]1CCCC[C@@H]1NC(=O)C[C@H](CC(=O)O)NC(=O)[C@H]1CCCC[C@@H]1NC(=O)[C@H]1CCCC[C@@H]1NC(=O)C[C@H](Cc1ccccc1)NC(=O)[C@H]1CCCC[C@@H]1N	3.31
NC(=O)CC[C@@H](CC(=O)N[C@H]1CCCC[C@@H]1C(=O)N[C@H]1CCCC[C@@H]1C(=O)N[C@H](CC(=O)N[C@H]1CCCC[C@@H]1C(N)=O)Cc1ccccc1)NC(=O)[C@H]1CCCC[C@@H]1N	4.41
CSCC[C@@H](CC(=O)N[C@H]1CCCC[C@@H]1C(N)=O)NC(=O)[C@H]1CCCC[C@@H]1NC(=O)[C@H]1CCCC[C@@H]1NC(=O)C[C@@H](NC(=O)[C@H]1CCCC[C@@H]1N)C(C)C	4.59
CSCC[C@@H](CC(=O)N[C@H]1CCCC[C@@H]1C(N)=O)NC(=O)[C@H]1CCCC[C@@H]1NC(=O)[C@H]1CCCC[C@@H]1NC(=O)C[C@H](Cc1ccccc1)NC(=O)[C@H]1CCCC[C@@H]1N	5.70

Let us examine a further case.
So for `CC[C@H](C)[C@@H](CC(=O)N[C@H]1CCCC[C@@H]1C(=O)N[C@H]1CCCC[C@@H]1C(=O)N[C@@H](CCCNC(=N)N)CC(=O)N[C@H]1CCCC[C@@H]1C(N)=O)NC(=O)[C@H]1CCCC[C@@H]1N` , the logged pKd turned out to be 4.70
